Values were extracted from ChEMBL document CHEMBL1201862.

Experiment: NIH-3T3 fibroblast cytotoxicity, dose response, cytotoxicity control, cell-based, fluorescence, Alamar Blue, secondary assay (AID 2327);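 note: NIH-3T3 mouse fibroblasts cultured with fluconazole at 8 µg/mL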
Format: functional
Calls of active or inactive are those of the source. Cut-off read from the data, not from the text of the source: actives have a measured EC50 and inactives only a lower limit.
Would you mind answering with one of these outcomes? 1 for active, -1 for inactive

So what was the verdict on "O=C(C[n+]1cc(-c2ccc(Cl)c(Cl)c2)n2c1CCC2)N1c2ccccc2Sc2ccccc21" in this test?
-1

So what was the verdict on "Cc1ccc(NC2=CC(=O)C(=O)c3ccccc32)cc1" in this test?
1

So what was the verdict on CCOC(=O)c1sc(N2C(=O)C(O)=C(C(=O)c3ccco3)C2c2cccc(Cl)c2)nc1C (stereo not given) in this test?
1

So what was the verdict on "O=C(Cc1ccc([N+](=O)[O-])cc1)NNC(=O)c1ccc2c(c1)OCO2" in this test?
-1
